Test: Plasma concentrations (PK), Example 1
Format: in vivo, human
Details: human, plasma, oral, 25 mg, 25 mg BID; Week 4; Peak; read-out: Plasma concentration, Mean
Protocol: For QD dosing, peak concentration was defined as any PK sample taken between 0.25 to <6 hours after the last morning dose and trough concentration was at least 20 hours after the last morning dose. For BID dosing, peak concentration was defined as any PK sample taken between 0.25 to <4 hours after the last dose and trough concentration was at least 8 hours after the last dose.
Metric name: level at 672 h (ng/mL)
The answer is to be given in ng/mL; state only the numeric part.

level at 672 h for CC(=O)NCCCC[C@@H]1NC(=O)[C@H](Cc2c[nH]c3c(C)cccc23)NC(=O)[C@H]([C@@H](C)O)NC(=O)[C@H](CC(N)=O)NC(=O)[C@@H](NC(C)=O)C(C)(C)SSC(C)(C)[C@@H](C(=O)N[C@@H](Cc2ccc(OCCN)cc2)C(=O)N[C@@H](Cc2ccc3ccccc3c2)C(=O)NC2(C(=O)N[C@@H](CCC(=O)O)C(=O)N[C@@H](CC(N)=O)C(=O)N[C@@H](Cc3cccnc3)C(=O)N(C)CC(N)=O)CCOCC2)NC1=O [IL-23 receptor antagonist peptide] ?
0.655

---

test: Plasma concentrations (PK), Example 1; assay type: in vivo, human; details: human, plasma, oral, 25 mg, weight >90 kg, 25 mg BID, Week 12, Intermediate; read-out: Plasma concentration, Geometric Mean
Metric name: level at 2016 h

level at 2016 h for CC(=O)NCCCC[C@@H]1NC(=O)[C@H](Cc2c[nH]c3c(C)cccc23)NC(=O)[C@H]([C@@H](C)O)NC(=O)[C@H](CC(N)=O)NC(=O)[C@@H](NC(C)=O)C(C)(C)SSC(C)(C)[C@@H](C(=O)N[C@@H](Cc2ccc(OCCN)cc2)C(=O)N[C@@H](Cc2ccc3ccccc3c2)C(=O)NC2(C(=O)N[C@@H](CCC(=O)O)C(=O)N[C@@H](CC(N)=O)C(=O)N[C@@H](Cc3cccnc3)C(=O)N(C)CC(N)=O)CCOCC2)NC1=O [IL-23 receptor antagonist peptide] ?
0.214 ng/mL

---

Test: Plasma concentrations (PK), Example 1
Type: in vivo, human
Conditions: human, plasma, oral, 25 mg, 25 mg QD; Week 4; Peak; read-out: Plasma concentration, Median
Method: For QD dosing, peak concentration was defined as any PK sample taken between 0.25 to <6 hours after the last morning dose and trough concentration was at least 20 hours after the last morning dose. For BID dosing, peak concentration was defined as any PK sample taken between 0.25 to <4 hours after the last dose and trough concentration was at least 8 hours after the last dose.
Metric name: level at 672 h (ng/mL)
The answer is to be given in ng/mL; state only the numeric part.

level at 672 h for CC(=O)NCCCC[C@@H]1NC(=O)[C@H](Cc2c[nH]c3c(C)cccc23)NC(=O)[C@H]([C@@H](C)O)NC(=O)[C@H](CC(N)=O)NC(=O)[C@@H](NC(C)=O)C(C)(C)SSC(C)(C)[C@@H](C(=O)N[C@@H](Cc2ccc(OCCN)cc2)C(=O)N[C@@H](Cc2ccc3ccccc3c2)C(=O)NC2(C(=O)N[C@@H](CCC(=O)O)C(=O)N[C@@H](CC(N)=O)C(=O)N[C@@H](Cc3cccnc3)C(=O)N(C)CC(N)=O)CCOCC2)NC1=O [IL-23 receptor antagonist peptide] ?
0.425

---

test: Plasma concentrations (PK), Example 1; format: in vivo, human; settings: human, plasma, oral, 25 mg, 25 mg BID; Week 8; Trough; read-out: Plasma concentration, Geometric Mean
Metric name: level at 1344 h (ng/mL)
The answer is to be given in ng/mL; state only the numeric part.

level at 1344 h for CC(=O)NCCCC[C@@H]1NC(=O)[C@H](Cc2c[nH]c3c(C)cccc23)NC(=O)[C@H]([C@@H](C)O)NC(=O)[C@H](CC(N)=O)NC(=O)[C@@H](NC(C)=O)C(C)(C)SSC(C)(C)[C@@H](C(=O)N[C@@H](Cc2ccc(OCCN)cc2)C(=O)N[C@@H](Cc2ccc3ccccc3c2)C(=O)NC2(C(=O)N[C@@H](CCC(=O)O)C(=O)N[C@@H](CC(N)=O)C(=O)N[C@@H](Cc3cccnc3)C(=O)N(C)CC(N)=O)CCOCC2)NC1=O [IL-23 receptor antagonist peptide] ?
0.151

---

test: Plasma concentrations (PK), Example 1; assay type: in vivo, human; conditions: human, plasma, oral, 25 mg, 25 mg QD; Week 8; Trough; read-out: Plasma concentration, Median
Metric name: level at 1344 h (ng/mL)
The answer is to be given in ng/mL; state only the numeric part.

level at 1344 h for CC(=O)NCCCC[C@@H]1NC(=O)[C@H](Cc2c[nH]c3c(C)cccc23)NC(=O)[C@H]([C@@H](C)O)NC(=O)[C@H](CC(N)=O)NC(=O)[C@@H](NC(C)=O)C(C)(C)SSC(C)(C)[C@@H](C(=O)N[C@@H](Cc2ccc(OCCN)cc2)C(=O)N[C@@H](Cc2ccc3ccccc3c2)C(=O)NC2(C(=O)N[C@@H](CCC(=O)O)C(=O)N[C@@H](CC(N)=O)C(=O)N[C@@H](Cc3cccnc3)C(=O)N(C)CC(N)=O)CCOCC2)NC1=O [IL-23 receptor antagonist peptide] ?
0.06

---

Test: Plasma concentrations (PK), Example 1
Type: in vivo, human
Details: human, plasma, oral, 25 mg, 25 mg BID; Week 8; Intermediate; read-out: Plasma concentration, Mean
Method: For QD dosing, peak concentration was defined as any PK sample taken between 0.25 to <6 hours after the last morning dose and trough concentration was at least 20 hours after the last morning dose. For BID dosing, peak concentration was defined as any PK sample taken between 0.25 to <4 hours after the last dose and trough concentration was at least 8 hours after the last dose.
Metric name: level at 1344 h (ng/mL)
The answer is to be given in ng/mL; state only the numeric part.

level at 1344 h for CC(=O)NCCCC[C@@H]1NC(=O)[C@H](Cc2c[nH]c3c(C)cccc23)NC(=O)[C@H]([C@@H](C)O)NC(=O)[C@H](CC(N)=O)NC(=O)[C@@H](NC(C)=O)C(C)(C)SSC(C)(C)[C@@H](C(=O)N[C@@H](Cc2ccc(OCCN)cc2)C(=O)N[C@@H](Cc2ccc3ccccc3c2)C(=O)NC2(C(=O)N[C@@H](CCC(=O)O)C(=O)N[C@@H](CC(N)=O)C(=O)N[C@@H](Cc3cccnc3)C(=O)N(C)CC(N)=O)CCOCC2)NC1=O [IL-23 receptor antagonist peptide] ?
0.092

---

assay: Plasma concentrations (PK), Example 1; assay type: in vivo, human; conditions: human, plasma, oral, 100 mg, weight >90 kg, 100 mg BID, Week 16, Intermediate; read-out: Plasma concentration, Mean
Metric name: level at 2688 h (ng/mL)
The answer is to be given in ng/mL; state only the numeric part.

level at 2688 h for CC(=O)NCCCC[C@@H]1NC(=O)[C@H](Cc2c[nH]c3c(C)cccc23)NC(=O)[C@H]([C@@H](C)O)NC(=O)[C@H](CC(N)=O)NC(=O)[C@@H](NC(C)=O)C(C)(C)SSC(C)(C)[C@@H](C(=O)N[C@@H](Cc2ccc(OCCN)cc2)C(=O)N[C@@H](Cc2ccc3ccccc3c2)C(=O)NC2(C(=O)N[C@@H](CCC(=O)O)C(=O)N[C@@H](CC(N)=O)C(=O)N[C@@H](Cc3cccnc3)C(=O)N(C)CC(N)=O)CCOCC2)NC1=O [IL-23 receptor antagonist peptide] ?
0.724

---

assay: Plasma concentrations (PK), Example 1; type: in vivo, human; conditions: human, plasma, oral, 50 mg, weight >90 kg, 50 mg QD, Week 16, Trough; read-out: Plasma concentration, Median
Metric name: level at 2688 h (ng/mL)
The answer is to be given in ng/mL; state only the numeric part.

level at 2688 h for CC(=O)NCCCC[C@@H]1NC(=O)[C@H](Cc2c[nH]c3c(C)cccc23)NC(=O)[C@H]([C@@H](C)O)NC(=O)[C@H](CC(N)=O)NC(=O)[C@@H](NC(C)=O)C(C)(C)SSC(C)(C)[C@@H](C(=O)N[C@@H](Cc2ccc(OCCN)cc2)C(=O)N[C@@H](Cc2ccc3ccccc3c2)C(=O)NC2(C(=O)N[C@@H](CCC(=O)O)C(=O)N[C@@H](CC(N)=O)C(=O)N[C@@H](Cc3cccnc3)C(=O)N(C)CC(N)=O)CCOCC2)NC1=O [IL-23 receptor antagonist peptide] ?
0.115

---

test: Plasma concentrations (PK), Example 1; type: in vivo, human; conditions: human, plasma, oral, 100 mg, weight >90 kg, 100 mg BID, Week 16, Trough; read-out: Plasma concentration, Mean
Metric name: level at 2688 h (ng/mL)
The answer is to be given in ng/mL; state only the numeric part.

level at 2688 h for CC(=O)NCCCC[C@@H]1NC(=O)[C@H](Cc2c[nH]c3c(C)cccc23)NC(=O)[C@H]([C@@H](C)O)NC(=O)[C@H](CC(N)=O)NC(=O)[C@@H](NC(C)=O)C(C)(C)SSC(C)(C)[C@@H](C(=O)N[C@@H](Cc2ccc(OCCN)cc2)C(=O)N[C@@H](Cc2ccc3ccccc3c2)C(=O)NC2(C(=O)N[C@@H](CCC(=O)O)C(=O)N[C@@H](CC(N)=O)C(=O)N[C@@H](Cc3cccnc3)C(=O)N(C)CC(N)=O)CCOCC2)NC1=O [IL-23 receptor antagonist peptide] ?
0.755
